Reference source: patent US20210403601A1

Target: T1, Taq DNA polymerase (Thermus aquaticus, UniProt P19821 1-832)
T1 construct: also called Taq enzyme; Taq DNA enzyme
T1 sequence (P19821 whole entry): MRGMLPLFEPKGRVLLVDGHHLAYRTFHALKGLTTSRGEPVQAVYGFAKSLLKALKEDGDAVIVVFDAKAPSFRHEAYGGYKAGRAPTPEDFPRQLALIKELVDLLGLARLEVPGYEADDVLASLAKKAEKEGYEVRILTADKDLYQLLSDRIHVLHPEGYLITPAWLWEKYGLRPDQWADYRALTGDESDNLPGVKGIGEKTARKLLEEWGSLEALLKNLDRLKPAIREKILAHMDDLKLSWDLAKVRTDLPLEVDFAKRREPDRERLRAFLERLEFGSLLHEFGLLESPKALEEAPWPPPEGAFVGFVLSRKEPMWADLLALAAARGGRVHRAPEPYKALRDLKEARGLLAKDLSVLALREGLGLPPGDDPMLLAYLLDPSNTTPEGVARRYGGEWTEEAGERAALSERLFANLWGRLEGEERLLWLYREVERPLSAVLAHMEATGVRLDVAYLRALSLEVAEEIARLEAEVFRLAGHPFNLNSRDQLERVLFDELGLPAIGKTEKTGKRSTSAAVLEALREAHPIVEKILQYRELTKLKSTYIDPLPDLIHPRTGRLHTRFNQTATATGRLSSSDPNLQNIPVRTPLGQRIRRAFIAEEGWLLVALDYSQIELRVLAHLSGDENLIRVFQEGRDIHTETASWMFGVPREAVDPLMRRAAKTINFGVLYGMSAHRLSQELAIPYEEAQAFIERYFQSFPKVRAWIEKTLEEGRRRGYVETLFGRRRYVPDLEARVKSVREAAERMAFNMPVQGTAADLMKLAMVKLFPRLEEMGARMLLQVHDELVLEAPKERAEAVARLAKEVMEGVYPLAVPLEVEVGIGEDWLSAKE
Assay: AMC sensor, antibody immobilised
measure_name: kon (M⁻¹ s⁻¹)
Numeric only. Scale: M⁻¹ s⁻¹

Example cases with answers are listed next.
binder | measure_name | reading_unit | value
Mutation 1-4 (antibody, V domains shown, Mutation 1 background; CDRs built) VH: QVQLQQPGAELVKPGASVRLSCQTSVNTFSTYYIYWVKQRPGEGLEWIGGINPTSGGPVFNEKFKSKATLTVDTSSSTAYMQLSSLTSVDSAVYYCTRSVVRRGYYFDYWGQGTALTVSS VL: DIQMTQTTSSLSASLGDRVTISCRASQDIQNYINWYQQKPDGTIKLLIYYTSRLHSGVPSRFSGSGSGTDYSLTIANLEQEDIATYFCQQDDTVPITFGAGTKVELKR | kon | M⁻¹ s⁻¹ | 38200
Mutation 1-43 (antibody, V domains shown, Mutation 1 background; CDRs built) VH: QVQLQQPGAELVKPGASVRLSCQTSVETFTTYYIYWVKQRPGEGLEWIGGLNPTSNPVFNEKFKSKATLTVDTSSSTAYMQLSSLTSVDSAVYYCTRSLVRRGYYFDYWGQGTALTVSS VL: DIQMTQTTSSLSASLGDRVTISCRASQDINNYVNWYQQKPDGTIKLLIYYTSRLHSGLPSRFSGSGSGTDYSLTIANLEQEDIATYFCQQDDTLPITFGAGTKVELKR | kon | M⁻¹ s⁻¹ | 71200
Mutation 1-17 (antibody, V domains shown, Mutation 1 background; CDRs built) VH: QVQLQQPGAELVKPGASVRLSCQTSVNTFTTYYIYWVKQRPGEGLEWIGGLNPTSGGPVFNEKFKSKATLTVDTSSSTAYMQLSSLTSVDSAVYYCTRSLIRRGYYFDYWGQGTALTVSS VL: DIQMTQTTSSLSASLGDRVTISCRASQDINNYINWYQQKPDGTIKLLIYYTSRLNSGLPSRFSGSGSGTDYSLTIANLEQEDIATYFCQQDDTLPLTFGAGTKVELKR | kon | M⁻¹ s⁻¹ | 34000

Which kon value belongs to Mutation 1-7 (antibody, V domains shown, Mutation 1 background; CDRs built) VH: QVQLQQPGAELVKPGASVRLSCQTSVDTFTTYYIYWVKQRPGEGLEWIGGINPTSNPVFNEKFKSKATLTVDTSSSTAYMQLSSLTSVDSAVYYCTRSLVRRGYYFDYWGQGTALTVSS VL: DIQMTQTTSSLSASLGDRVTISCRASQDINNYVNWYQQKPDGTIKLLIYYTSRLNSGVPSRFSGSGSGTDYSLTIANLEQEDIATYFCQQDDTLPITFGAGTKVELKR ? 41000

Now consider Mutation 1-15 (antibody, V domains shown, Mutation 1 background; CDRs built) VH: QVQLQQPGAELVKPGASVRLSCQTSVETFTTYYIYWVKQRPGEGLEWIGGVNPTSGGPVFNEKFKSKATLTVDTSSSTAYMQLSSLTSVDSAVYYCTRSLLRRGYYFDYWGQGTALTVSS VL: DIQMTQTTSSLSASLGDRVTISCRASQDINNYLNWYQQKPDGTIKLLIYYTSRLNSGIPSRFSGSGSGTDYSLTIANLEQEDIATYFCQQDDTLPVTFGAGTKVELKR . 47600
